Recorded EC50 for the following compounds
# Tested on: SW-1736
# method description: Cytotoxicity against human SW1736 cells assessed as reduction in cell proliferation after 96 hrs by sulforhodamine B assay
# Format: functional, cell-based
# details: SW-1736, 96 h

{"cpd smiles": "CC1(C)CC[C@]2(C(=O)NCc3ccccc3)CC[C@]3(C)C(=CC[C@@H]4[C@@](C)(CC=O)[C@H](C(C)(C)C=O)CC[C@]43C)[C@@H]2C1", "EC50": "7.5 µM"}
{"cpd smiles": "CC(=O)O[C@@H]1[C@H](OC(C)=O)C[C@]2(C)[C@H]3CC=C4[C@@H]5CC(C)(C)CC[C@]5(C(=O)O)CC[C@@]4(C)[C@]3(C)CC[C@H]2C1(C)C", "EC50": "22 µM"}
{"cpd smiles": "COCO[C@@H]1C[C@]2(C)[C@H]3CC=C4[C@@H]5CC(C)(C)CC[C@]5(C(=O)NCc5ccccc5)CC[C@@]4(C)[C@]3(C)CC[C@H]2C(C)(C)[C@H]1OCOC", "EC50": "18.2 µM"}
{"cpd smiles": "CC(=O)O[C@H]1C[C@]2(C)[C@H]3CC=C4[C@@H]5[C@@H](C)[C@H](C)CC[C@]5(C(=O)Nc5ccccc5)CC[C@@]4(C)[C@]3(C)CC[C@H]2C(C)(C)[C@H]1OC(C)=O", "EC50": "4.4 µM"}
{"cpd smiles": "CC(=O)O[C@H]1C[C@]2(C)[C@H]3CC=C4[C@@H]5CC(C)(C)CC[C@]5(NC(=O)c5ccccc5)CC[C@@]4(C)[C@]3(C)CC[C@H]2C(C)(C)[C@H]1OC(C)=O", "EC50": "6.8 µM"}
{"cpd smiles": "CC(=O)O[C@@H]1C[C@]2(C)[C@H]3CC=C4[C@@H]5CC(C)(C)CC[C@]5(C(=O)NCCc5ccccc5)CC[C@@]4(C)[C@]3(C)CC[C@H]2C(C)(C)[C@H]1OC(C)=O", "EC50": "5.2 µM"}
{"cpd smiles": "COCO[C@@H]1C[C@]2(C)[C@H]3CC=C4[C@@H]5CC(C)(C)CC[C@]5(C(=O)NCc5ccccc5)CC[C@@]4(C)[C@]3(C)CC[C@H]2C(C)(C)[C@H]1O", "EC50": "5.4 µM"}

----------
# System: SW-1736
# method description: Cytotoxicity against human SW1736 cells assessed as reduction in cell proliferation after 96 hrs by sulforhodamine B assay
# Format: functional, cell-based
# details: SW-1736, 96 h
Recorded EC50 for the following compounds

{"cpd smiles": "CC(=O)O[C@@H]1C[C@]2(C)[C@H]3CC=C4[C@@H]5CC(C)(C)CC[C@]5(C(=O)Nc5ccccc5)CC[C@@]4(C)[C@]3(C)CC[C@H]2C(C)(C)[C@H]1OC(C)=O", "experimental target": "SW-1736", "EC50 [µM]": 2.9}
{"cpd smiles": "COCCO[C@@H]1C[C@]2(C)[C@H]3CC=C4[C@@H]5CC(C)(C)CC[C@]5(C(=O)NCc5ccccc5)CC[C@@]4(C)[C@]3(C)CC[C@H]2C(C)(C)[C@H]1OCCOC", "experimental target": "SW-1736", "EC50 [µM]": 4.6}
{"cpd smiles": "CC(=O)O[C@H]1C[C@]2(C)[C@H]3CC=C4[C@@H]5CC(C)(C)CC[C@]5(C(=O)NCc5ccccc5)CC[C@@]4(C)[C@]3(C)CC[C@H]2C(C)(C)[C@H]1OC(C)=O", "experimental target": "SW-1736", "EC50 [µM]": 3.4}
{"cpd smiles": "CC(=O)O[C@H]1C[C@]2(C)[C@H]3CC=C4[C@@H]5CC(C)(C)CC[C@]5(C(=O)O)CC[C@@]4(C)[C@]3(C)CC[C@H]2C(C)(C)[C@@H]1OC(C)=O", "experimental target": "SW-1736", "EC50 [µM]": 23.4}
{"cpd smiles": "CC(=O)O[C@H]1C[C@]2(C)[C@H]3CC=C4[C@@H]5[C@@H](C)[C@H](C)CC[C@]5(NC(=O)Nc5ccccc5)CC[C@@]4(C)[C@]3(C)CC[C@H]2C(C)(C)[C@H]1OC(C)=O", "experimental target": "SW-1736", "EC50 [µM]": 6.8}

Each recorded value in this set is attributed to ChEMBL document CHEMBL4428035.
